system: Mycoplasma pneumoniae strain M129 (ATCC 29342); test: Time-kill curves; type: cell-based; parameters: unit not given here; conditions: 1×MIC; time 24
Decision: M. pneumoniae count in time-kill curve beneath 6 gives label 1; M. pneumoniae count in time-kill curve meeting or exceeding 6 gives label 0.

# count of solved cases: 3
Input: Given the entry C=C[C@]1(C)C[C@@H](OC(=O)CSCCN(CC)CC)[C@]2(C)[C@H](C)CC[C@]3(CCC(=O)[C@H]32)[C@@H](C)[C@@H]1O [tiamulin, Tiamulin, reference compound] , would its reported M. pneumoniae count in time-kill curve be below 6?
Output: label 0

Input: Is it true that M. pneumoniae count in time-kill curve reported for C=CC1(C)CC(OC(=O)CSc2ccc(NC(=O)Cc3ccc([N+](=O)[O-])cc3)cc2)C2(C)C(C)CCC3(CCC(=O)C32)C(C)C1O (centres unmarked) [compound 16C] is less than 6?
Output: label 0

Input: Is M. pneumoniae count in time-kill curve of CN(C)[C@@H]1C(O)=C(C(N)=O)C(=O)[C@@]2(O)C(O)=C3C(=O)c4c(O)cccc4[C@@](C)(O)[C@H]3C[C@@H]12 [tetracycline] strictly below 6?
Output: label 1

New cases:
Input: Lab log: compare recorded M. pneumoniae count in time-kill curve with 6; is it strictly lower for CC[C@H]1OC(=O)[C@H](C)[C@@H](O[C@H]2C[C@@](C)(OC)[C@@H](O)[C@H](C)O2)[C@H](C)[C@@H](O[C@@H]2O[C@H](C)C[C@H](N(C)C)[C@H]2O)[C@](C)(O)C[C@@H](C)C(=O)[C@H](C)[C@@H](O)[C@]1(C)O [erythromycin] ?
Output: label 0

Input: Report whether reported M. pneumoniae count in time-kill curve is lower than 6 (strictly) for O=C(O)c1cn(C2CC2)c2cc(N3CCNCC3)c(F)cc2c1=O [ciprofloxacin]
Output: label 0

====

Listing: M. pneumoniae count in time-kill curve of selected compounds
system: Mycoplasma pneumoniae strain M129 (ATCC 29342); test: Time-kill curves; type: cell-based; parameters: unit not given here; conditions: 64×MIC; time 72

// worked examples, M. pneumoniae count in time-kill curve included
Entry C=CC1(C)CC(OC(=O)CSc2ccc(NC(=O)Cc3ccc([N+](=O)[O-])cc3)cc2)C2(C)C(C)CCC3(CCC(=O)C32)C(C)C1O (centres unmarked) [compound 16C] ; M. pneumoniae count in time-kill curve = 2

The recorded M. pneumoniae count in time-kill curve for entry O=C(O)c1cn(C2CC2)c2cc(N3CCNCC3)c(F)cc2c1=O equals 2.981

M. pneumoniae count in time-kill curve recorded for this compound, C=C[C@]1(C)C[C@@H](OC(=O)CSCCN(CC)CC)[C@]2(C)[C@H](C)CC[C@]3(CCC(=O)[C@H]32)[C@@H](C)[C@@H]1O [tiamulin, Tiamulin, reference compound] , is 3.29

Entry CN(C)[C@@H]1C(O)=C(C(N)=O)C(=O)[C@@]2(O)C(O)=C3C(=O)c4c(O)cccc4[C@@](C)(O)[C@H]3C[C@@H]12 , M. pneumoniae count in time-kill curve reported as 3.079

Pending compound:
Notebook: CC[C@H]1OC(=O)[C@H](C)[C@@H](O[C@H]2C[C@@](C)(OC)[C@@H](O)[C@H](C)O2)[C@H](C)[C@@H](O[C@@H]2O[C@H](C)C[C@H](N(C)C)[C@H]2O)[C@](C)(O)C[C@@H](C)C(=O)[C@H](C)[C@@H](O)[C@]1(C)O , M. pneumoniae count in time-kill curve read as 2.68

====

test system: Mycoplasma pneumoniae strain M129 (ATCC 29342); assay: Time-kill curves; format: cell-based; parameters: unit not given here; conditions: 2×MIC; time 60
Quick rule for you: M. pneumoniae count in time-kill curve at 4 or higher means 1, lower means 0.

Input: Check if M. pneumoniae count in time-kill curve >= 4 (inclusive). Item: O=C(O)c1cn(C2CC2)c2cc(N3CCNCC3)c(F)cc2c1=O [ciprofloxacin]
Output: 1

Input: Decide: M. pneumoniae count in time-kill curve of C=C[C@]1(C)C[C@@H](OC(=O)CSCCN(CC)CC)[C@]2(C)[C@H](C)CC[C@]3(CCC(=O)[C@H]32)[C@@H](C)[C@@H]1O [tiamulin, Tiamulin, reference compound] >= 4?
Output: 0

Input: # check: M. pneumoniae count in time-kill curve of CC[C@H]1OC(=O)[C@H](C)[C@@H](O[C@H]2C[C@@](C)(OC)[C@@H](O)[C@H](C)O2)[C@H](C)[C@@H](O[C@@H]2O[C@H](C)C[C@H](N(C)C)[C@H]2O)[C@](C)(O)C[C@@H](C)C(=O)[C@H](C)[C@@H](O)[C@]1(C)O [erythromycin] is greater than or equal to 4
Output: 1

Input: Quick check, M. pneumoniae count in time-kill curve >= 4? C=CC1(C)CC(OC(=O)CSc2ccc(NC(=O)Cc3ccc([N+](=O)[O-])cc3)cc2)C2(C)C(C)CCC3(CCC(=O)C32)C(C)C1O (centres unmarked) [compound 16C]
Output: 1

====

tested on: Mycoplasma pneumoniae strain M129 (ATCC 29342); experiment: Time-kill curves; format: cell-based; parameters: unit not given here; settings: 4×MIC; time 60
endpoint: M. pneumoniae count in time-kill curve
Please reply with the value in numeric form only.

Sure, the documented M. pneumoniae count in time-kill curve for C=C[C@]1(C)C[C@@H](OC(=O)CSCCN(CC)CC)[C@]2(C)[C@H](C)CC[C@]3(CCC(=O)[C@H]32)[C@@H](C)[C@@H]1O [tiamulin, Tiamulin, reference compound] is 3.889

Sample CC[C@H]1OC(=O)[C@H](C)[C@@H](O[C@H]2C[C@@](C)(OC)[C@@H](O)[C@H](C)O2)[C@H](C)[C@@H](O[C@@H]2O[C@H](C)C[C@H](N(C)C)[C@H]2O)[C@](C)(O)C[C@@H](C)C(=O)[C@H](C)[C@@H](O)[C@]1(C)O ; M. pneumoniae count in time-kill curve observed: 3.913

Continuing:
In plain terms, C=CC1(C)CC(OC(=O)CSc2ccc(NC(=O)Cc3ccc([N+](=O)[O-])cc3)cc2)C2(C)C(C)CCC3(CCC(=O)C32)C(C)C1O (centres unmarked) [compound 16C] has a documented M. pneumoniae count in time-kill curve of 5.61

The reported M. pneumoniae count in time-kill curve of the molecule O=C(O)c1cn(C2CC2)c2cc(N3CCNCC3)c(F)cc2c1=O was 5.179

The recorded M. pneumoniae count in time-kill curve for entry CN(C)[C@@H]1C(O)=C(C(N)=O)C(=O)[C@@]2(O)C(O)=C3C(=O)c4c(O)cccc4[C@@](C)(O)[C@H]3C[C@@H]12 equals 3.499
